tested target: CSF1R (Homo sapiens, UniProt P07333)
Sequence (P07333 20-972): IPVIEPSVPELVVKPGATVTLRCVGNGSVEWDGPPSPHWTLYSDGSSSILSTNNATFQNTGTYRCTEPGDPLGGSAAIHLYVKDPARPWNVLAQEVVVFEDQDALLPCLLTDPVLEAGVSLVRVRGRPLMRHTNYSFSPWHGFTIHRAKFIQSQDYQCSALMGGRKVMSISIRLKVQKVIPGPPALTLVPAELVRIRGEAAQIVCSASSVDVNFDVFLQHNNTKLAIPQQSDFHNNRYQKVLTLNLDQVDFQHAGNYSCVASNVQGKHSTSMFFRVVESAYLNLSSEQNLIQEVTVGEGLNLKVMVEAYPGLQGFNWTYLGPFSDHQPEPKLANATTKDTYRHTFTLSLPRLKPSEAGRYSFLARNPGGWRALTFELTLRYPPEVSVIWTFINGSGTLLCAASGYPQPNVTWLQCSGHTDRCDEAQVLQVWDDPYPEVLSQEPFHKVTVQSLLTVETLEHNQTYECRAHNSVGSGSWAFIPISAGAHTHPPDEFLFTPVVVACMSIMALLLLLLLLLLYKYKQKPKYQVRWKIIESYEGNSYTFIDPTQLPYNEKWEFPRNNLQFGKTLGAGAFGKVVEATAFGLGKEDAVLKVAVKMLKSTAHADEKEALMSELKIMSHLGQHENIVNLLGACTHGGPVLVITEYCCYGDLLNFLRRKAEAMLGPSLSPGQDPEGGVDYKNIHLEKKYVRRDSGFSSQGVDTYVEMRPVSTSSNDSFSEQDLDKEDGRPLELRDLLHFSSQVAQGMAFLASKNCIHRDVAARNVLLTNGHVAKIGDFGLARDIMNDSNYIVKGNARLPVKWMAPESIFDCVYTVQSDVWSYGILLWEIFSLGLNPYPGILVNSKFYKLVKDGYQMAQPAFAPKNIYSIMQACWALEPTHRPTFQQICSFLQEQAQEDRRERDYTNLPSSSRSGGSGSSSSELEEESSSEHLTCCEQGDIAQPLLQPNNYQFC
assay overview: Competition binding assay, CSF1R Kd
Parameters: made in house
details: competition binding
pKd: −log10 of the molar value.
pKd listing for selected compounds.

1. O[C@@H]1CCCC[C@H]1Nc1nc2ccc(Cn3cnc4cncnc43)cc2o1; 7.30 to 7.70
2. O[C@@H]1CCCC[C@H]1Nc1nc2ccc(Cn3cnc4cc(-c5cc[nH]n5)ccc43)cc2s1; ≥ 8.30
3. O[C@@H]1CCCC[C@H]1Nc1nc2cc(F)c(Cn3cnc4cccnc43)cc2s1; 7.70 to 8.30
4. O[C@@H]1CCCC[C@H]1Nc1nc2ccc(Cn3cnc4cc(-n5cncn5)ccc43)cc2s1; 7.70 to 8.30
5. COc1ccc2ncc(Cc3ccc4nc(N[C@@H]5CCCC[C@H]5O)sc4c3)n2c1; 7.70 to 8.30
6. Cc1cc(Br)cc2ncn(Cc3ccc4nc(N[C@@H]5CCCC[C@H]5O)sc4c3)c12; 7.30 to 7.70
7. Fc1cnc2c(c1)ncn2Cc1ccc2nc(N[C@H]3C=CCCC3)sc2c1; 7.70 to 8.30
8. C#Cc1ccc2c(c1)ncn2Cc1ccc2nc(N[C@@H]3CCCC[C@H]3O)sc2c1; 7.70 to 8.30

Returns the measured pKd for the input compound. Input: O[C@@H]1CCCC[C@H]1Nc1nc2ccc(Cn3cnc4cc(F)ccc43)cc2s1 ≥ 8.30

Returns the measured pKd for the input compound. Input: COc1ccc2ncc(Cc3ccc4nc(N[C@@H]5CCCC[C@H]5O)sc4c3)n2n1 ≥ 8.30

Returns the measured pKd for the input compound. Input: OC[C@@H]1CCC[C@@H](Nc2nc3ccc(Cn4cnc5cc(F)cnc54)cc3s2)C1 7.70 to 8.30

Returns the measured pKd for the input compound. Input: O[C@@H]1CCCC[C@H]1Nc1nc2c(Cl)cc(Cc3cnc4ccc(N5CCOCC5)nn34)cc2s1 7.70 to 8.30

Returns the measured pKd for the input compound. Input: Fc1cnc2c(c1)ncn2Cc1ccc2nc(Nc3ccccc3)sc2c1 7.30 to 7.70

Returns the measured pKd for the input compound. Input: OC[C@H]1CC[C@H](Nc2nc3ccc(Cn4cnc5cc(F)cnc54)cc3s2)CC1 7.70 to 8.30

Returns the measured pKd for the input compound. Input: COc1nc2c(cc1C#N)ncn2Cc1ccc2nc(N[C@@H]3CCCC[C@H]3O)sc2c1 7.70 to 8.30

Returns the measured pKd for the input compound. Input: N#Cc1cc2ncn(Cc3ccc4nc(N[C@@H]5CCCC[C@H]5O)oc4c3)c2cc1Cl 7.30 to 7.70

Returns the measured pKd for the input compound. Input: O[C@@H]1[C@H](O)CCC[C@H]1Nc1nc2ccc(Cn3cnc4cc(OC5COC5)ccc43)cc2s1 ≥ 8.30

Returns the measured pKd for the input compound. Input: O[C@@H]1CCCC[C@H]1Nc1nc2ccc(Cn3cnc4cc(C5=CCNCC5)ccc43)cc2s1 ≥ 8.30

Returns the measured pKd for the input compound. Input: CC(C)(O)c1cnc2c(c1)ncn2Cc1ccc2nc(N[C@@H]3CCCC[C@H]3O)sc2c1 7.30 to 7.70

Returns the measured pKd for the input compound. Input: O[C@H]1CC[C@H](Nc2nc3ccc(Cn4cnc5cc(F)cnc54)cc3s2)CC1 < 7.30

Returns the measured pKd for the input compound. Input: N#Cc1ccc2c(c1)ncn2Cc1ccc2nc(N[C@@H]3CCCC[C@H]3O)oc2c1 < 7.30

----------
tested target: CSF1R (Homo sapiens, UniProt P07333)
assay overview: HEK293 CSF1R phosphorylation MSD assay
Type: cell-based
Parameters: expressed in transfected cells; host or cells: HEK293
details: HEK293 cells, M-CSF stimulated CSF1R phosphorylation, MSD; read-out: HEK293 pCSF1R M-CSF MSD:IC50
IC50 listing for selected compounds.

Some compounds with recorded IC50:
1) O[C@@H]1[C@H](O)CCC[C@H]1Nc1nc2ccc(Cc3cnc4cc(-n5cccn5)ccn34)cc2s1; ≤ 50 nM
2) O[C@@H]1CCCC[C@H]1Nc1nc2ccc(Cn3cnc4cc(C(F)(F)F)cnc43)cc2s1; 50 to 200 nM
3) O[C@@H]1CCCC[C@H]1Nc1nc2ccc(Cc3cnc4cc(-n5ccnc5)ccn34)cc2s1; ≤ 50 nM
4) CC(C)(O)c1cnc2c(c1)ncn2Cc1ccc2nc(N[C@@H]3CCCC[C@H]3O)sc2c1; 50 to 200 nM

Returns the measured IC50 for the input compound. Input: Fc1cnc2c(c1)ncn2Cc1ccc2nc(N[C@@H]3CCCC[C@H]3Cl)sc2c1 200 to 500 nM

Returns the measured IC50 for the input compound. Input: O[C@@H]1CCCC[C@H]1Nc1nc2ccc(Cn3cnc4cc(F)c(F)cc43)cc2s1 200 to 500 nM

Returns the measured IC50 for the input compound. Input: N#CCOc1ccc2c(c1)ncn2Cc1ccc2nc(N[C@@H]3CCCC[C@H]3O)sc2c1 ≤ 50 nM

----------
tested target: FLT3 (Homo sapiens)
Construct: made in house
Sequence (P36888 27-993): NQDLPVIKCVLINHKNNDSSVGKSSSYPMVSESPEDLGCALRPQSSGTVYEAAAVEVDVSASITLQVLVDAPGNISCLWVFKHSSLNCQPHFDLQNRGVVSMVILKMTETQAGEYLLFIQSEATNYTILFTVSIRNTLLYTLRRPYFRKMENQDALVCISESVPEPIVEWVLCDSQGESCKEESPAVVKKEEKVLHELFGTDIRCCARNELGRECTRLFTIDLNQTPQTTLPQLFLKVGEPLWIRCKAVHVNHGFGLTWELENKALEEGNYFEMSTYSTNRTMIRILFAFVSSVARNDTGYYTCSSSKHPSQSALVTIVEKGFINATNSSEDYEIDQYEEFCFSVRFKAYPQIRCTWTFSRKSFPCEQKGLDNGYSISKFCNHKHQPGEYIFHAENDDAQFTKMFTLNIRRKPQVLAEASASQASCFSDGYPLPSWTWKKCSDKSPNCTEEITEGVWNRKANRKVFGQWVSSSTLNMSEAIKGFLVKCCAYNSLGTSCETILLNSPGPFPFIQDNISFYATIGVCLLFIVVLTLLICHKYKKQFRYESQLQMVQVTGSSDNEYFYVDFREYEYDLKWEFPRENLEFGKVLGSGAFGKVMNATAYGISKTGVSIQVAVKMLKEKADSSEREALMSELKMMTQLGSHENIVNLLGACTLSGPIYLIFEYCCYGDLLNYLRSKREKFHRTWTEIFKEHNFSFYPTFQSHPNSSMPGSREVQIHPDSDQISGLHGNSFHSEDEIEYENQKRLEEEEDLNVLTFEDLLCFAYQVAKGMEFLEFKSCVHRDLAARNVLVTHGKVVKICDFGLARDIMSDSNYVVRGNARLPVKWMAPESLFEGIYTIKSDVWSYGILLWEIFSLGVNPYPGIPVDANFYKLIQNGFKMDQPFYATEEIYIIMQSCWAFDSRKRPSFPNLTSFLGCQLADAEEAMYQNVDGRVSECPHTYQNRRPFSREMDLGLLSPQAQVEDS
assay overview: Competition binding assay, FLT3 Kd
readout: Kd

// fetch FLT3 (Homo sapiens) Kd for COc1cc2ncn(Cc3ccc4nc(NCC5CCCCC5)oc4c3)c2cc1OC ≤ 200 nM

// fetch FLT3 (Homo sapiens) Kd for COc1cc2ncn(Cc3ccc4nc(NC[C@H]5CCCO5)sc4c3)c2cc1OC 1000 to 5000 nM

// fetch FLT3 (Homo sapiens) Kd for COc1cc2ncn(Cc3ccc4nc(Nc5ccccc5O)sc4c3)c2cc1OC 1000 to 5000 nM

----------
tested target: CSF1R (Homo sapiens)
assay overview: Competition binding assay, CSF1R Kd
Parameters: made in house
details: competition binding
readout: Kd

Some compounds with recorded Kd:
1. CC(O)c1ccn2c(Cc3ccc4nc(N[C@@H]5CCCC[C@H]5O)sc4c3)cnc2c1 (stereo partly shown); 0.02 to 0.05 µM
2. OC[C@@H]1CCCC[C@H]1Nc1nc2ccc(Cn3cnc4cc(Br)cnc43)cc2s1; 0.005 to 0.02 µM
3. CN1CCN(c2ccc3ncc(Cc4ccc5nc(N[C@@H]6CCCC[C@H]6O)sc5c4)n3n2)CC1; 0.005 to 0.02 µM
4. O[C@@H]1[C@H](O)CCC[C@H]1Nc1nc2ccc(Cn3cnc4cc(F)cnc43)cc2s1; 0.005 to 0.02 µM
5. O[C@@H]1CCCC[C@H]1Nc1nc2ccc(Cn3cnc4cc(F)c(F)cc43)cc2s1; 0.005 to 0.02 µM
6. OC[C@H]1CC[C@@H](Nc2nc3ccc(Cn4cnc5cc(F)cnc54)cc3s2)CC1; 0.02 to 0.05 µM
7. COc1ccc2c(c1)ncn2Cc1ccc2nc(N[C@@H]3CCCC[C@H]3O)oc2c1; 0.005 to 0.02 µM
8. C#Cc1ccc2ncn(Cc3ccc4nc(N[C@@H]5CCCC[C@H]5O)sc4c3)c2c1; 0.005 to 0.02 µM

// fetch CSF1R (Homo sapiens) Kd for Oc1ccc2c(c1)ncn2Cc1ccc2nc(N[C@@H]3CCCC[C@H]3O)sc2c1 ≤ 0.005 µM

// fetch CSF1R (Homo sapiens) Kd for OC[C@H]1CCC[C@@H](Nc2nc3ccc(Cn4cnc5cc(F)cnc54)cc3s2)C1 0.005 to 0.02 µM

// fetch CSF1R (Homo sapiens) Kd for N#Cc1ccc2ncc(Cc3ccc4nc(N[C@@H]5CCCC[C@H]5O)sc4c3)n2n1 ≤ 0.005 µM

// fetch CSF1R (Homo sapiens) Kd for O[C@@H]1CCCC[C@H]1Nc1nc2ccc(Cc3cnc4cc(-n5cncn5)ccn34)cc2s1 0.005 to 0.02 µM

// fetch CSF1R (Homo sapiens) Kd for O[C@@H]1CCCC[C@H]1Nc1nc2ccc(Cn3cnc4cc(F)cc(F)c43)cc2s1 ≤ 0.005 µM

// fetch CSF1R (Homo sapiens) Kd for COc1ccc2ncn(Cc3ccc4nc(N[C@@H]5CCCC[C@H]5O)oc4c3)c2c1 0.005 to 0.02 µM

// fetch CSF1R (Homo sapiens) Kd for CC(=O)c1ccn2c(Cc3ccc4nc(N[C@@H]5CCCC[C@H]5O)sc4c3)cnc2c1 0.005 to 0.02 µM

// fetch CSF1R (Homo sapiens) Kd for O[C@@H]1CCCC[C@H]1Nc1nc2ccc(Cn3cnc4cc(C5=CCOCC5)ccc43)cc2s1 ≤ 0.005 µM

----------
tested target: kinase panel containing either 386 or 392 distinct kinases
assay overview: Kinase selectivity score S10 from competition binding panel
details: 10 μM, panel of 386 or 392 distinct kinases
readout: Kinase specificity S(10)

1) O[C@@H]1CCCC[C@H]1Nc1nc2ccc(Cc3cnc4cnccn34)cc2s1 [Example 125]; B (0.01<B≤0.02)
2) OC[C@H]1CCC[C@@H](Nc2nc3ccc(Cn4cnc5cc(F)cnc54)cc3s2)C1 [Example 194]; B (0.01<B≤0.02)

----------
tested target: CSF1R (Homo sapiens, UniProt P07333)
assay overview: Competition binding assay, CSF1R Kd
Parameters: made in house
details: competition binding
readout: Kd

Some molecules with recorded Kd:
1) Cc1ccc2c(c1)ncn2Cc1ccc2nc(N[C@@H]3CCCC[C@H]3O)sc2c1; 5 to 20 nM
2) O[C@@H]1CCCC[C@H]1Nc1nc2ccc(Cn3cnc4cc(F)cnc43)cc2o1; ≤ 5 nM
3) O[C@@H]1CCCC[C@H]1Nc1nc2c(F)cc(Cn3cnc4cccnc43)c(F)c2s1; 5 to 20 nM
4) O[C@@H]1CCCC[C@H]1Nc1nc2ccc(Cn3cnc4cc(Br)cc(F)c43)cc2s1; 5 to 20 nM
5) C=CCOc1ccn2c(Cc3ccc4nc(N[C@@H]5CCCC[C@H]5O)sc4c3)cnc2c1; 5 to 20 nM
6) O[C@@H]1CCCC[C@H]1Nc1nc2ccc(Cn3cnc4cc(OC5COC5)ccc43)cc2s1; ≤ 5 nM

Returns the measured Kd for the input molecule. Input: O[C@H]1CCCC[C@H]1Nc1nc2ccc(Cn3cnc4cc(F)cnc43)cc2s1 ≤ 5 nM
